Data credit: the antibiotic and cytotoxicity screens of Wong et al. (2023)

# Test system: HepG2
# EXPERIMENT NOTES: cytotoxicity call (relative viability < 0.9)
# MEASUREMENT SETUP: 10 µM
In all, about 39,000 compounds went through this assay and about 3,300 (8.5%) were called active. The entries come from a sample that favours actives as a whole.
PROPERTY LABEL: cytotoxicity call

C[C@@H]1CN([C@H](C)CO)C(=O)c2cc(NS(=O)(=O)c3ccc(F)cc3)ccc2O[C@@H](C)CCCCO[C@H]1CN(C)S(=O)(=O)c1ccc(Cl)cc1    inactive
C[C@H](CO)N1C[C@H](C)[C@@H](CN(C)C(=O)Nc2ccc(F)cc2)Oc2c(NC(=O)Nc3cccc4ccccc34)cccc2C1=O    inactive

---

# System: HepG2
# EXPERIMENT NOTES: cytotoxicity call (relative viability < 0.9)
# MEASUREMENT SETUP: 10 µM
About 3,300 (8.5%) of roughly 39,000 compounds were called active. For the sample, actives were picked, then their nearest neighbours and some compounds at random.
I would appreciate it if you answered using one of these outcomes: Y (active), N (inactive)

Illustrative cases are given below, each with its answer.
Cc1c(C)n2c3c(=O)[nH]c(=O)n(C)c3nc2n1C    N
C[C@@H]1CN([C@H](C)CO)C(=O)c2cc(NC(=O)CCCCCC(=O)Nc3ccccc3N)ccc2O[C@H]1CN(C)Cc1ccccc1    N
CS(=O)(=O)N1C[C@H](O)COC[C@@H]2O[C@@H](CC(=O)NCCc3ccncc3)CC[C@H]21    N
CN1CCN(C(=O)C[C@H]2C=C[C@H](NS(=O)(=O)c3cccc(F)c3)[C@@H](CO)O2)CC1    N

Exercise: Name the outcome recorded for C[C@@H]1CN([C@H](C)CO)C(=O)c2cc(NC(=O)Cc3ccccc3)ccc2O[C@@H](C)CCCCO[C@@H]1CN(C)C(=O)NC1CCCCC1 in the assay.
Key: N

Exercise: Name the outcome recorded for C[C@@H]1CN([C@H](C)CO)C(=O)c2cc(NC(=O)CCCCCC(=O)Nc3ccccc3N)ccc2O[C@@H]1CN(C)Cc1ccc(Oc2ccccc2)cc1 in the assay.
Key: Y

Exercise: Name the outcome recorded for C[C@H](CO)N1C[C@H](C)[C@H](CN(C)Cc2ccc(Oc3ccccc3)cc2)Oc2ccc(NC(=O)CCCN(C)C)cc2C1=O in the assay.
Key: Y

Exercise: Name the outcome recorded for CC1C=CC=CC=CC=CC=CC=CC=CC(OC2OC(C)C(O)C(N)C2O)CC2OC(O)(CC(O)CC(O)C(O)CCC(O)CC(O)CC(=O)OC(C)C(C)C1O)CC(O)C2C(=O)O (centres undefined) in the assay.
Key: N

---

# Tested on: HepG2
# EXPERIMENT NOTES: cytotoxicity call (relative viability < 0.9)
# MEASUREMENT SETUP: 10 µM
In all, about 39,000 compounds went through this assay and about 3,300 (8.5%) were called active. This excerpt belongs to a sample that is enriched for actives.
I would appreciate it if you answered using one of these outcomes: active, inactive

Illustrative cases are given below, each with its answer.
COC1CC(OC2C(C)=CCC3CC(CC4(CCC(C)C(C5CCCCC5)O4)O3)OC(=O)C3C=C(C)C(=NO)C4OCC(=CC=CC2C)C34O)OC(C)C1O (centres undefined)    active
COc1ccc(S(=O)(=O)N(C)C[C@H]2OCCCC[C@H](C)Oc3ccc(NC(=O)C4CCCCC4)cc3C(=O)N([C@@H](C)CO)C[C@@H]2C)cc1    inactive
O=c1ccc(-c2ccncc2)n[nH]1    inactive
C[C@H]1CN([C@@H](C)CO)C(=O)Cc2cc(NS(C)(=O)=O)ccc2O[C@@H]1CN(C)Cc1ccc(C(F)(F)F)cc1    inactive
Cc1noc(C)c1NC(=O)Nc1ccc2c(c1)C(=O)N([C@H](C)CO)C[C@@H](C)[C@H](CN(C)Cc1ccc3c(c1)OCO3)OCCCC[C@H](C)O2    inactive

Exercise: Name the outcome recorded for Cc1cncc2cccc(S(=O)(=O)NCCN(C/C=C/c3ccc(Br)cc3)C/C=C/c3ccc(Br)cc3)c12 in the assay.
Key: inactive

Exercise: Name the outcome recorded for Cc1noc(C)c1NC(=O)Nc1ccc2c(c1)C(=O)N([C@@H](C)CO)C[C@H](C)[C@@H](CN(C)Cc1ccccc1)OCCCC[C@@H](C)O2 in the assay.
Key: inactive

Exercise: Name the outcome recorded for Nc1ccn([C@@H]2C[C@@H](O)[C@H](CO)O2)c(=O)n1 in the assay.
Key: inactive

Exercise: Name the outcome recorded for COc1ccc(S(=O)(=O)N(C)C[C@H]2OCCCC[C@@H](C)Oc3ccc(NC(=O)C4CCCCC4)cc3C(=O)N([C@H](C)CO)C[C@H]2C)cc1 in the assay.
Key: inactive

Exercise: Name the outcome recorded for Cc1ccc(S(=O)(=O)Nc2ccc3c(c2)CC(=O)N([C@@H](C)CO)C[C@H](C)[C@@H](CN(C)Cc2ccc(C(F)(F)F)cc2)O3)cc1 in the assay.
Key: active

Exercise: Name the outcome recorded for Cc1ccc(S(=O)(=O)Nc2ccc3c(c2)CC(=O)N([C@H](C)CO)C[C@@H](C)[C@H](CN(C)Cc2ccncc2)O3)cc1 in the assay.
Key: inactive

Exercise: Name the outcome recorded for COc1ccc(S(=O)(=O)N(C)C[C@@H]2Oc3ccc(NC(=O)NC(C)C)cc3CC(=O)N([C@@H](C)CO)C[C@@H]2C)cc1 in the assay.
Key: inactive

Exercise: Name the outcome recorded for COc1ccc(S(=O)(=O)N(C)C[C@H]2OCCCC[C@H](C)Oc3ccc(NC(=O)C4CCCCC4)cc3C(=O)N([C@H](C)CO)C[C@@H]2C)cc1 in the assay.
Key: active

Exercise: Name the outcome recorded for COc1ccc(S(=O)(=O)N(C)C[C@@H]2OCCCC[C@@H](C)Oc3ccc(NC(=O)C4CCCCC4)cc3C(=O)N([C@H](C)CO)C[C@H]2C)cc1 in the assay.
Key: active

---

# Test system: HepG2
# EXPERIMENT NOTES: cytotoxicity call (relative viability < 0.9)
# MEASUREMENT SETUP: 10 µM
The whole screen tested about 39,000 compounds, of which about 3,300 (8.5%) were called active. The sample as a whole holds a higher share of actives than the screen did.
I would appreciate it if you answered using one of these outcomes: active, inactive

Illustrative cases are given below, each with its answer.
C[C@@H]1CN([C@@H](C)CO)C(=O)c2cccc(NS(=O)(=O)c3ccc(F)cc3)c2O[C@H]1CN(C)CC1CC1    inactive
CO[C@H]1CN(C)C(=O)c2cc(NC(=O)NC(C)C)ccc2OC[C@H](C)N(Cc2ccc(-c3ccccn3)cc2)C[C@H]1C    inactive

Exercise: Name the outcome recorded for C[C@H](CO)N1C[C@H](C)[C@@H](CN(C)Cc2cncnc2)Oc2ncc(C#C[C@@H](C)O)cc2C1=O in the assay.
Key: inactive

---

# Test system: HepG2
# EXPERIMENT NOTES: cytotoxicity call (relative viability < 0.9)
# MEASUREMENT SETUP: 10 µM
Hit rate of the full screen: of about 39,000 compounds, about 3,300 (8.5%) were called active. The full list was thinned out, with actives kept by preference.
PROPERTY LABEL: cytotoxicity call

C[C@H]1CCCCO[C@H](CN(C)CC2CCCCC2)[C@@H](C)CN([C@@H](C)CO)C(=O)c2cc(NC(=O)NC3CCCCC3)ccc2O1    active
Cc1ccc(S(=O)(=O)Nc2ccc3c(c2)C(=O)N([C@H](C)CO)C[C@@H](C)[C@H](CN(C)C(=O)c2ccccc2)OCCCC[C@@H](C)O3)cc1    inactive
CCCN(C)C[C@H]1OCCCC[C@@H](C)Oc2ccc(NC(=O)NC3CCCCC3)cc2C(=O)N([C@@H](C)CO)C[C@H]1C    inactive
C[C@@H]1CN([C@@H](C)CO)C(=O)Cc2cc(NC(=O)c3ccncc3)ccc2O[C@@H]1CN(C)S(=O)(=O)c1ccccc1    active
C[C@H](CO)N1C[C@H](C)[C@H](CN(C)CC2CCCCC2)OCCCC[C@H](C)Oc2ccc(NC(=O)NC3CCCCC3)cc2C1=O    inactive
COc1cccc2c1C(=O)c1c(O)c3c(c(O)c1C2=O)CC(O)(C(=O)CO)CC3OC1CC(N)C(O)C(C)O1 (stereo not given)    active
COCC(=O)N1C[C@H](C)[C@@H](OC)CN(C)C(=O)c2cc(NC(=O)c3ccc(F)cc3)ccc2OC[C@@H]1C    inactive
C[C@H]1CN([C@@H](C)CO)C(=O)Cc2cc(NC(=O)c3ccncc3)ccc2O[C@@H]1CN(C)S(=O)(=O)c1ccccc1    inactive
C[C@@H]1CN([C@H](C)CO)C(=O)c2cc(NC(=O)C3CCCCC3)ccc2O[C@H]1CN(C)Cc1ccc(Oc2ccccc2)cc1    inactive
CCCN(C)C[C@@H]1OCCCC[C@@H](C)Oc2ccc(NC(=O)NC3CCCCC3)cc2C(=O)N([C@H](C)CO)C[C@@H]1C    active

Exercise: Form field: reported cytotoxicity call of C[C@@H]1CCCCO[C@H](CN(C)CC2CCCCC2)[C@H](C)CN([C@H](C)CO)C(=O)c2cc(NC(=O)NC3CCCCC3)ccc2O1
Key: active

Exercise: Form field: reported cytotoxicity call of CCOC(=O)Cc1csc(/C(=N/O)C(N)=O)n1
Key: inactive

Exercise: Form field: reported cytotoxicity call of COc1cccc2c1C(=O)c1c(O)c3c(c(O)c1C2=O)C[C@](O)(C(=O)CO)C[C@H]3O[C@H]1C[C@@H](N)[C@@H](O)[C@@H](C)O1
Key: active

Exercise: Form field: reported cytotoxicity call of C[C@@H]1CCCCO[C@H](CN(C)CC2CCCCC2)[C@@H](C)CN([C@H](C)CO)C(=O)c2cc(NC(=O)NC3CCCCC3)ccc2O1
Key: inactive

Exercise: Form field: reported cytotoxicity call of O=C(C[C@@H]1C=C[C@H](NC(=O)c2ccc(F)cc2)[C@H](CO)O1)NCc1ccncn1
Key: inactive
